- Tested on: Arabidopsis thaliana plants
- Experiment Summary: SOA1 phenotypic analysis of herbicide-treated plants (MIC, Tmic, leaf traits, symptom class)
- Type: in vivo
- Condition Details: numeric value standardized to mock treated plants; SOA1
Property Name: leafTwisting (Dev.)
One number for each entry.

Below are worked cases with known answers.
- Compound: "CN(C)C(=O)Nc1ccc(Cl)c(Cl)c1"
  leafTwisting (Dev.): 0
- Compound: "O=C(O)COc1ccc(Cl)cc1Cl"
  leafTwisting (Dev.): 2
- Compound: "c1cc[n+]2c(c1)-c1cccc[n+]1CC2"
  leafTwisting (Dev.): 0

Kindly give each listed record's leafTwisting (Dev.).
1. CP(=O)(O)CCC(N)C(=O)O (stereo not drawn) [Glufosinate]
2. O=C(O)CNCP(=O)(O)O [Glyphosate]
3. C[n+]1ccc(-c2cc[n+](C)cc2)cc1

// result
1. 1
2. 0
3. 0

* * *

- System: Arabidopsis thaliana
- Experiment Summary: MOA1 gene expression profiling (arrays of 22,000 Arabidopsis genes)
- Condition Details: altered genes identified as essential for plant growth in internal database; 1 hr
Would you kindly list No. of Lethal Genes Altered for each of these molecules?
Numbers only.

- Molecule: "COc1nc(C)nc(NC(=O)NS(=O)(=O)c2ccccc2Cl)n1"
  No. of Lethal Genes Altered: 8
- Molecule: "CP(=O)(O)CCC(N)C(=O)O (centres unmarked) [Glufosinate]"
  No. of Lethal Genes Altered: 10
- Molecule: "O=C(O)c1ccccc1C(=O)Nc1cccc2ccccc12"
  No. of Lethal Genes Altered: 3
- Molecule: "COC(=O)NS(=O)(=O)c1ccc(N)cc1"
  No. of Lethal Genes Altered: 5

Consider the record given below.
// query I would be grateful if you could share the reported No. of Lethal Genes Altered for CS(=O)(=O)c1cc(C(F)(F)F)ccc1C(=O)c1cnoc1C1CC1 .
// result 15

* * *

- Tested on: Arabidopsis thaliana plants
- Experiment Summary: SOA1 phenotypic analysis of herbicide-treated plants (MIC, Tmic, leaf traits, symptom class)
- Assay type: in vivo
- Condition Details: numeric value standardized to mock treated plants; SOA1
Property Name: newLeafAnthocyanins (Dev.)
Numbers only.

Below are worked cases with known answers.
- Compound: "C[n+]1ccc(-c2cc[n+](C)cc2)cc1 [Paraquat]"
  Target Under Test: "Arabidopsis thaliana plants"
  newLeafAnthocyanins (Dev.): 0
- Compound: "O=C(O)CNCP(=O)(O)O [Glyphosate]"
  Target Under Test: "Arabidopsis thaliana plants"
  newLeafAnthocyanins (Dev.): 1
- Compound: "c1cc[n+]2c(c1)-c1cccc[n+]1CC2 [Diquat]"
  Target Under Test: "Arabidopsis thaliana plants"
  newLeafAnthocyanins (Dev.): 0

Kindly give each listed record's newLeafAnthocyanins (Dev.).
1. O=C(O)COc1ccc(Cl)cc1Cl [2,4-D]
2. CP(=O)(O)CCC(N)C(=O)O (stereo not drawn) [Glufosinate]

// result
1: 0; 2: 0

* * *

- Tested on: Arabidopsis thaliana plants
- Experiment Summary: SOA1 phenotypic analysis of herbicide-treated plants (MIC, Tmic, leaf traits, symptom class)
- Format: in vivo
- Condition Details: numeric value standardized to mock treated plants; SOA1
Would you kindly list matureLeafChlorosis (Dev.) for each of these compounds?
Give bare numbers.

Below are worked cases with known answers.
- Compound: "O=C(O)CNCP(=O)(O)O [Glyphosate]"
  matureLeafChlorosis (Dev.): 1
- Compound: "CN(C)C(=O)Nc1ccc(Cl)c(Cl)c1 [Diuron]"
  matureLeafChlorosis (Dev.): 2
- Compound: "c1cc[n+]2c(c1)-c1cccc[n+]1CC2 [Diquat]"
  matureLeafChlorosis (Dev.): 1
- Compound: "CP(=O)(O)CCC(N)C(=O)O (stereo not drawn) [Glufosinate]"
  matureLeafChlorosis (Dev.): 3
- Compound: "O=C(O)COc1ccc(Cl)cc1Cl [2,4-D]"
  matureLeafChlorosis (Dev.): 2

Consider the record given below.
// query // fetch Arabidopsis thaliana plants matureLeafChlorosis (Dev.) for C[n+]1ccc(-c2cc[n+](C)cc2)cc1 [Paraquat]
// result 1
